Test system: HEK-293T
Assay: Incucyte cell viability with HEK293T; further: filed as whole numbers so only -1 and 0 and 1 occur
Assay type: toxicity, cell-based
Conditions: human, 18 h, 10 µM, compound concentration 10 uM, replicate number 1, timepoint 18 hours
# key: entry, value: Growth Rate
# print the numeric value only

{"molecule": "Cc1cc(Nc2nccc(C)n2)cc(-c2cnc([C@@]3(O)CC[C@H](C(=O)O)C(C)(C)C3)s2)c1 [MRL-SYKi]", "Growth Rate": 0}
{"molecule": "CC(=O)OCC(=O)[C@@]1(O)CC[C@H]2[C@@H]3CCC4=CC(=O)CC[C@]4(C)[C@@]3(F)[C@@H](O)C[C@@]21C [FLUDROCORTISONE ACETATE]", "Growth Rate": 1}
{"molecule": "CS(=O)(=O)NC[C@H]1CC[C@H](Nc2nc3c(s2)CCSc2ccccc2-3)CC1", "Growth Rate": 0}
{"molecule": "CN1CCN(CCOc2cc(OC3CCOCC3)c3c(Nc4c(Cl)ccc5c4OCO5)ncnc3c2)CC1 [SARACATINIB]", "Growth Rate": 0}
{"molecule": "COc1ccc2cc(OCC3(C(=O)O)CN(C(=O)c4ccc(F)cc4)C3)ccc2c1 [PF-04418948]", "Growth Rate": 1}
{"molecule": "C[C@H]1CC(=O)Nc2cc(C(=O)NCCC3CC3)ccc2N1C(=O)N1CC2CC2C1 (stereo partly drawn)", "Growth Rate": 1}
{"molecule": "Cc1c(OCc2cccc(-c3ccc(C(=O)O)cc3)c2)cc2c(c1C)C(=O)C(C1CCCC1)C2 (stereo not drawn)", "Growth Rate": 0}

Lookup result for NC(=O)c1ccc(NC(=O)NCc2cccc(C(=O)Nc3ccc4c(c3)CNCC4)c2)cc1 ; measured Growth Rate: 1
